Cited source for all entries: the supplement of paper PMC7411054

# System: WPMY1-TP53BP1-CLTA
# Assay summary: phenotypically active (imaging signature differs from DMSO and reproducible) at any of 0.3-9 uM (binary (1 = active, 0 = inactive)); higher = active
# Condition parameters: treatment time: 24 h
Structures can show the parent of a compound that is named as a salt.
Would you mind answering with one of these outcomes? active, inactive

Some solved entries appear below for comparison.
[[record]]
compound = "CC(C)NCC(O)COc1cccc2ccccc12 (stereo unspecified)"
label = "inactive"

[[record]]
compound = "Cc1ccc(S(=O)(=O)/C=C/C#N)cc1"
label = "inactive"

[[record]]
compound = "COCC(=O)N[C@@H](Cc1ccc(-c2cc(Cl)cc(Cl)c2)cc1)[C@H](O)[C@@H](O)C(=O)O"
label = "inactive"

[[record]]
compound = "CO[C@@H]1[C@H](N(C)C(=O)c2ccccc2)C[C@H]2O[C@]1(C)n1c3ccccc3c3c4c(c5c6ccccc6n2c5c31)C(=O)NC4"
label = "active"

[[record]]
compound = "COc1ccccc1S(=O)(=O)Nc1ccc2c(c1)CN(C)C(=O)N2"
label = "active"

[[record]]
compound = "CCOc1cc(CC(=O)N[C@@H](CC(C)C)c2ccccc2N2CCCCC2)ccc1C(=O)O [repaglinide]"
label = "inactive"

[[record]]
compound = "O=C(NCc1cccc(O)c1)Nc1nc(-c2ccncc2)cs1 [RKI 1447 dihydrochloride]"
label = "active"

[[record]]
compound = "Cc1nnc(-c2ccc3occ(-c4ccc(S(C)=O)cc4)c3c2)o1 (stereo unspecified)"
label = "active"

[[record]]
compound = "CS(=O)(=O)OCCCCOS(C)(=O)=O"
label = "inactive"

[[record]]
compound = "CC(=O)N[C@@H]1[C@@H](O[C@H](C)C(=O)O)[C@H](O)[C@@H](CO)O[C@@H]1O"
label = "inactive"


In: Name the outcome recorded for NS(=O)(=O)c1nn2cc(-c3ccccc3)nc2s1 in the assay.
Out: active

In: Name the outcome recorded for C[C@@H](N)[C@H]1CC[C@H](C(=O)Nc2ccncc2)CC1 in the assay.
Out: active

In: Name the outcome recorded for COc1ccc(CC2c3cc(OC)c(OC)cc3CC[N+]2(C)CCC(=O)OCCCCCOC(=O)CC[N+]2(C)CCc3cc(OC)c(OC)cc3C2Cc2ccc(OC)c(OC)c2)cc1OC (stereo unspecified) [Atracurium besilate] in the assay.
Out: inactive

In: Name the outcome recorded for Cc1cc(CS(=O)(=O)c2ccccc2)cc(OCc2ccc(CN3CCC[C@@H]3CO)cc2)c1 [PF 543 hydrochloride] in the assay.
Out: inactive

In: Name the outcome recorded for NS(=O)(=O)c1cc(C2(O)NC(=O)c3ccccc32)ccc1Cl (stereo unspecified) in the assay.
Out: inactive

In: Name the outcome recorded for COc1cc(C)c(Sc2cnc(NC(=O)c3ccc(CNC(C)C(C)(C)C)cc3)s2)cc1C(=O)N1CCN(C(C)=O)CC1 (stereo unspecified) in the assay.
Out: active

In: Name the outcome recorded for Cn1c(=O)c2[nH]cnc2n(C)c1=O in the assay.
Out: inactive

In: Name the outcome recorded for C=C(C)[C@@H]1CC[C@]2(CO)CC[C@]3(C)[C@H](CC[C@@H]4[C@@]5(C)CC[C@H](O)C(C)(C)[C@@H]5CC[C@]43C)[C@@H]12 in the assay.
Out: inactive

In: Name the outcome recorded for C=C1C(=O)O[C@@H]2[C@H]3O[C@]3(C)CCC=C(C)CC[C@@H]12 [Parthenolide] in the assay.
Out: inactive

In: Name the outcome recorded for CN1c2ccc([N+](=O)[O-])cc2N=C(c2ccc(C(=O)O)cc2)c2cc3c(cc21)C(C)(C)CCC3(C)C in the assay.
Out: inactive

In: Name the outcome recorded for CC(C)(C(=O)O)c1ccc(C(O)CCCN2CCC(C(O)(c3ccccc3)c3ccccc3)CC2)cc1 (stereo unspecified) [fexofenadine] in the assay.
Out: inactive

In: Name the outcome recorded for CC1Cc2ccccc2N1NC(=O)c1ccc(Cl)c(S(N)(=O)=O)c1 (stereo unspecified) [indapamide] in the assay.
Out: inactive

In: Name the outcome recorded for Cc1nc(NC(=O)N2CCC[C@H]2C(N)=O)sc1-c1ccnc(C(C)(C)C(F)(F)F)c1 in the assay.
Out: active
